The measured values listed here are drawn from the kinase profiling compilation of Christmann-Franck et al. (2016).

Provide the reported residual activity of each item.
- assay system: CDK9 CCNT1 (human) (UniProt P50750+O60563)
- Sequence (O60563 whole entry, looked up): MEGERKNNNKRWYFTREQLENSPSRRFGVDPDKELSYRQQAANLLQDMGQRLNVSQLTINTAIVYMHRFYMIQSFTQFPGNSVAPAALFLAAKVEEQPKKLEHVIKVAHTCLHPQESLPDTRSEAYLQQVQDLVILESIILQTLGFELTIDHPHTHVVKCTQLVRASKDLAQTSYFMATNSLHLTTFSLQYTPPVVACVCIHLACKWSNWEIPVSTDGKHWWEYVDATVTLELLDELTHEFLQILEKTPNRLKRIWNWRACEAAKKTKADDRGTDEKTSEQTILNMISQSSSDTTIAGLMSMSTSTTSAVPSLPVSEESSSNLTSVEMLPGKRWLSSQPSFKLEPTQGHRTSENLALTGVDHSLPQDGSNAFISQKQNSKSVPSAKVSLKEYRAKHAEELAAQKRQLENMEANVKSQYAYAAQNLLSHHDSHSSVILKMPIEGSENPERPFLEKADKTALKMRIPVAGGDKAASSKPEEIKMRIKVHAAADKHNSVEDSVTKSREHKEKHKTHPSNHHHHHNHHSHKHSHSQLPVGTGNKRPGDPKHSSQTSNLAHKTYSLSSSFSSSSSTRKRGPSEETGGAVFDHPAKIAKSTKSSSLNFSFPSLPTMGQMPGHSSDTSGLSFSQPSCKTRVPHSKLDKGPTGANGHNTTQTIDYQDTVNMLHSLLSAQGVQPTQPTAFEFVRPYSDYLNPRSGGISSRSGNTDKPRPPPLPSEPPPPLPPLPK
- Sequence (P50750 whole entry, looked up): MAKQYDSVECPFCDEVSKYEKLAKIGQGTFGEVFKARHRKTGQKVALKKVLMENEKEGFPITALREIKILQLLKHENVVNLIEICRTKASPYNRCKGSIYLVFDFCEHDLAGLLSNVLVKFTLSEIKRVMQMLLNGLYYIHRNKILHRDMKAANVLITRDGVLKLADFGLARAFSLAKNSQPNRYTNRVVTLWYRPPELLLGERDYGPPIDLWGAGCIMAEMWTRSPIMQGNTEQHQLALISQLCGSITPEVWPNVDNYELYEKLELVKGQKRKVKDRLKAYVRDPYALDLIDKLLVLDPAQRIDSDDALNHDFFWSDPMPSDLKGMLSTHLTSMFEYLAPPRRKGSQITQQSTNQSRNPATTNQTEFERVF
- measurement notes: radiometric filter-binding kinase assay, Kinase HotSpot
- study conditions: compound 0.5 µM; ATP 10 µM
Form entry: value (%) — number only.

Request: For CDK9 CCNT1 (human) (UniProt P50750+O60563), give the measured residual activity of the entry `CCCCc1c(-c2ccc(OC)cc2)[nH]c2nccnc12`
Response: 55.2

Request: Fill in: residual activity on CDK9 CCNT1 (human) (UniProt P50750+O60563), entry `COc1ccc(C(=O)Nc2sc3c(c2C(N)=O)CCCC3)cc1OC`
Response: 102

Request: Write down measured residual activity (CDK9 CCNT1 (human) (UniProt P50750+O60563)) for this compound. `COc1cc2ncnc(Nc3ccc(OCc4ccccc4)cc3)c2cc1OC`
Response: 94.5

Request: Please report the measured residual activity for `O=C1NC(=O)c2c1c1c3ccccc3[nH]c1n1cncc21` tested on CDK9 CCNT1 (human) (UniProt P50750+O60563).
Response: 82.9

Request: # return residual activity of `CS(=O)(=O)CCNCc1ccc(-c2ccc3ncnc(Nc4ccc(OCc5cccc(F)c5)c(Cl)c4)c3c2)o1` (system: CDK9 CCNT1 (human) (UniProt P50750+O60563))
Response: 85.2

Request: Jot down residual activity (CDK9 CCNT1 (human) (UniProt P50750+O60563)) of `COc1cc(Nc2c(C#N)cnc3cc(OCCCN4CCN(C)CC4)c(OC)cc23)c(Cl)cc1Cl` .
Response: 87

Request: Find the measured residual activity of `O=C1C(Cl)=C(N2C(=O)CCC2=O)C(=O)c2ccccc21` with CDK9 CCNT1 (human) (UniProt P50750+O60563) as test system.
Response: 101

---

- System: FLT4 (human), P35916 [Q890H]
- Sequence (P35916 whole entry, looked up, stated change not applied): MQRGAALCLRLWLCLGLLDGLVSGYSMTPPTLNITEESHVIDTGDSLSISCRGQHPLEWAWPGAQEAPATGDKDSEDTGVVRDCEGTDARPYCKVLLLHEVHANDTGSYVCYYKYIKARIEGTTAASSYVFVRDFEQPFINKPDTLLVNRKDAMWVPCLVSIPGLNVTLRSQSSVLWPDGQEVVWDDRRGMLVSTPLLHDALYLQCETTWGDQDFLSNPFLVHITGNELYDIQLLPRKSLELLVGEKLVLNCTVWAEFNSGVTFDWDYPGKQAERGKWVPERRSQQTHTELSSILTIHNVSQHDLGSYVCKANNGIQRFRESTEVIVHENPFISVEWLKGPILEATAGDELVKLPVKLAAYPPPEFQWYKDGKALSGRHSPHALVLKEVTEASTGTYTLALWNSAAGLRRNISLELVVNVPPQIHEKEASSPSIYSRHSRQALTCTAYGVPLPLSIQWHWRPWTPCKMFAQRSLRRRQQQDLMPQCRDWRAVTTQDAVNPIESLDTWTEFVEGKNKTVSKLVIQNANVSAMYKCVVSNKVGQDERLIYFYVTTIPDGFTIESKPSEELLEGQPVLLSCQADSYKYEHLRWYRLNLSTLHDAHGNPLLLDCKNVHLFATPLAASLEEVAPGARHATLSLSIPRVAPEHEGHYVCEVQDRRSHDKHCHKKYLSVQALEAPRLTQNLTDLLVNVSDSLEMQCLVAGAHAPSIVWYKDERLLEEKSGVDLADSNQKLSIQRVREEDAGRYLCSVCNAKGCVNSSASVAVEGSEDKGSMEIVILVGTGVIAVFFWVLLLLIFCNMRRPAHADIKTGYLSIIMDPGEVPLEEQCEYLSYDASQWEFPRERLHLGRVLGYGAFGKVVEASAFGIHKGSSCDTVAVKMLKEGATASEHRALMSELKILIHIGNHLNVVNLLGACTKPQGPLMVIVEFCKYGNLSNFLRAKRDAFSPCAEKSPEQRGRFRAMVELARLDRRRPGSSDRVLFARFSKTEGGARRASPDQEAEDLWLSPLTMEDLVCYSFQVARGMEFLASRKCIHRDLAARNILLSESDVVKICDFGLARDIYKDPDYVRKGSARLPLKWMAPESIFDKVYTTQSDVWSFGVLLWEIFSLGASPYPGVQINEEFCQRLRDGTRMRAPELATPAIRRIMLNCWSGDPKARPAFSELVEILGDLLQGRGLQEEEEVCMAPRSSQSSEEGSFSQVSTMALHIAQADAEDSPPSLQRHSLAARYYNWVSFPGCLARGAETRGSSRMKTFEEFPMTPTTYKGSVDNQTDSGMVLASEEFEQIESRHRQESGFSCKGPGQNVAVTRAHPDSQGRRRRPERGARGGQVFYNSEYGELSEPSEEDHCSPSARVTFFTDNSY
- measurement notes: radiometric filter-binding kinase assay, Kinase HotSpot
- study conditions: compound 0.5 µM; ATP 10 µM
Record form. Attribute: residual activity. Fill in for each entry.
Give your result in % as a bare value.

Request: Provide measured residual activity on FLT4 (human), P35916 [Q890H] for `COc1ccc(CNC(=O)Nc2ncc([N+](=O)[O-])s2)cc1` please.
Response: 91.2

Request: Quote FLT4 (human), P35916 [Q890H] residual activity for entry `NC(=O)c1ccc(N(C(N)=O)c2c(F)cccc2F)nc1-c1ccc(F)cc1F` .
Response: 97.5

Request: Provide the reported residual activity (system: FLT4 (human), P35916 [Q890H]) for CS(=O)c1ccc(-c2nc(-c3ccc(F)cc3)c(-c3ccncc3)[nH]2)cc1 (centres undefined)
Response: 119

Request: GET residual activity | system: FLT4 (human), P35916 [Q890H] | item: `Cn1cc(/C=C2\C(=O)Nc3ccc(S(N)(=O)=O)cc32)c2ccccc21`
Response: 65.1

---

- assay system: DYRK1B (human)
- measurement notes: radiometric filter-binding kinase assay, Kinase HotSpot
- study conditions: compound 0.5 µM; ATP 10 µM
Provide the recorded residual activity for the entries that follow.
# number only, unit % dropped from output

Request: Report measured residual activity; entry is `CO[C@@H]1[C@H](N(C)C(=O)c2ccccc2)C[C@H]2O[C@]1(C)n1c3ccccc3c3c4c(c5c6ccccc6n2c5c31)C(=O)NC4`
Response: 35.6

Request: Note down residual activity recorded for `C[C@@H]1CCN(C(=O)CC#N)C[C@@H]1N(C)c1ncnc2[nH]ccc12`
Response: 97

Request: Complete the entry with residual activity for `COc1ccc(S(=O)(=O)N(CCO)c2ccccc2CN(C)C/C=C/c2ccc(Cl)cc2)cc1`
Response: 104

Request: Specify measured residual activity for `COc1ccc2c(c1)/C(=C/c1cnc[nH]1)C(O)=N2` .
Response: 53.1

Request: Specify reported residual activity for the compound shown: `COc1cc2ncnc(Nc3ccc(Oc4ccccc4)cc3)c2cc1OC`
Response: 97

Request: Report residual activity, nothing else, for this compound: `COc1ccc(C(=O)Nc2sc3c(c2C(N)=O)CCCC3)cc1OC`
Response: 104

Request: Specify residual activity for `CN(C)c1ccc(/C=C2\C(=O)Nc3ccccc32)cc1` and stop.
Response: 106

Request: Give the reported residual activity for this compound. `COc1ccc(Cl)cc1NC(=O)Nc1cc(C)nc2ccccc12`
Response: 99.7

Request: For the compound `O=C(c1cc2cc(O)ccc2[nH]1)c1cc2cc(O)ccc2[nH]1` , report residual activity.
Response: 92

Request: Please give measured residual activity of the following entry: `COc1cc(Nc2c(C#N)cnc3cc(OCCCN4CCN(C)CC4)c(OC)cc23)c(Cl)cc1Cl`
Response: 97

Request: Provide residual activity value for the following compound: `O=C1c2ccccc2-c2n[nH]c3cccc1c23`
Response: 65.7

Request: Hello, please tell me recorded residual activity for this one: `c1ccc2c(-c3ccncc3)c[nH]c2c1`
Response: 90.5
